Kindly state Growth Percent for each of the entries shown.
System: 60 different human tumor cell lines
ASSAY PROCEDURE: NCI Development Therapeutics Program 60 cell line screen, one dose
Format: cell-based
CONDITION DETAILS: Breast Cancer, MCF7
One number for each entry, in %.

Reference set, count: 4
INSERT INTO results (molecule, unit_annotation, recorded_number) VALUES
  ('C[C@]12CCc3nc(N)sc3C1=CC[C@@H]1[C@@H]2CC[C@]2(C)C(=NNC(N)=O)CC[C@@H]12 [IVb.1]', '%', '−55.62'),
  ('C[C@]12CCc3sc(NCCc4ccccc4)nc3C1=CC[C@@H]1[C@@H]2CC[C@]2(C)C(=O)CC[C@@H]12 [IIa.2]', '%', 20.41),
  ('CN(c1ccccc1)c1nc2c(s1)CC[C@@]1(C)C2=CC[C@@H]2[C@@H]1CC[C@]1(C)C(=O)CC[C@@H]21 [IIa.6]', '%', 32.55),
  ('C[C@]12CCc3nc(Nc4ccc(O)cc4)sc3C1=CC[C@@H]1[C@@H]2CC[C@]2(C)C(=O)CC[C@@H]12 [IIa.35]', '%', 3.11);

Turning now to a further molecule:
State, in one line, measured Growth Percent of C[C@]12CCc3sc(Nc4cccc(O)c4)nc3C1=CC[C@@H]1[C@@H]2CC[C@]2(C)C(=O)CC[C@@H]12 [IIa.17]
−25.89

###

System: SK-MEL-28
ASSAY PROCEDURE: Melanoma cytotoxicity assay (resazurin)
Assay type: cell-based
CONDITION DETAILS: Homo sapiens; SK-MEL-28 melanoma cells, 24 hours, resazurin
METRIC: IC50

INSERT INTO results (compound, metric, result) VALUES
  ('Cc1ccc(Nc2nc3c(s2)CC[C@@]2(C)C3=CC[C@@H]3[C@@H]2CC[C@]2(C)C(=O)CC[C@@H]32)cc1 [IIa.32]', 'IC50', '> 20 µM');

Batch: IC50 for all items listed.
1. C[C@]12CCc3sc(Nc4ccccc4Cl)nc3C1=CC[C@@H]1[C@@H]2CC[C@]2(C)C(=O)CC[C@@H]12 [IIa.11]
2. Cc1ccc(Nc2nc3c(s2)C2=CC[C@H]4[C@@H]5CC[C@H](O)[C@@]5(C)CC[C@@H]4[C@@]2(C)CC3)cc1 [IIIa.33]

1. > 20 µM
2. < 10 µM

###

For each entry below, report its GI50 value.
Test system: 60 different human tumor cell lines
ASSAY PROCEDURE: cells
CONDITION DETAILS: NCI-H522

INSERT INTO measurements (cpd_smiles, result) VALUES
  ('C[C@]12CC[C@H]3[C@@H](CC=C4c5sc(-c6ccc(O)cc6)nc5CC[C@@]43C)[C@@H]1CC[C@@H]2O', '22.6 µM');

Could you tell me GI50 for each of these compounds? They are listed below.
1. C[C@]12CCc3sc(Nc4cccc(O)c4)nc3C1=CC[C@@H]1[C@@H]2CC[C@]2(C)C(=O)CC[C@@H]12
2. C[C@]12CCc3sc(Nc4ccc(F)cc4F)nc3C1=CC[C@@H]1[C@@H]2CC[C@]2(C)C(=O)CC[C@@H]12
3. C[C@]12CCc3sc(NCCc4ccccc4)nc3C1=CC[C@@H]1[C@@H]2CC[C@]2(C)C(=O)CC[C@@H]12
4. C[C@]12CCc3sc(Nc4ccc(OC(F)(F)F)cc4)nc3C1=CC[C@@H]1[C@@H]2CC[C@]2(C)C(=O)CC[C@@H]12
5. C[C@]12CC[C@H]3[C@@H](CC=C4c5sc(Nc6ccccc6)nc5CC[C@@]43C)[C@@H]1CC[C@@H]2O

["6.6 µM", "1.84 µM", "1.78 µM", "2.14 µM", "1.9 µM"]
